Target: minimal U1 snRNP with U1-C (SPR) (human, UniProt P08621;P62316;P62318;P14678;P62306;P62304;P62308;P09234 …, internal_change)
Assay: SPR
property: Kd (nM)
Your answer should be a plain number; it is taken to be in nM.

CAGAGUAAGUAU (ssRNA) [11bp-1A] :: 2.7

In: Record request: Kd value, item CAGGUAAGUAU (ssRNA) [11bp]
Out: 0.203
